The reader will find reported IC50 values listed item by item below.
Assay System: Human PD-L1/PD-1 (Homo sapiens)
Construct: made in house; host or cells: HEK293T
Sequence (Q9NZQ7 with tags, fused parts or gaps): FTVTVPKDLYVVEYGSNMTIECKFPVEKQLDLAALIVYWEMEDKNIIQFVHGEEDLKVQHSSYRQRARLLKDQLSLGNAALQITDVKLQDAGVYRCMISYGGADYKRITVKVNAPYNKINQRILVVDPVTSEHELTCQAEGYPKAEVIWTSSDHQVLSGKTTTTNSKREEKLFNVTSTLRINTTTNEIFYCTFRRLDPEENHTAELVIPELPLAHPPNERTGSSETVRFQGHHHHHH
Assay Method Text: HTRF PD-1-Ig/PD-L1-His binding assay (human PD-L1)
Measurement Parameters: cluster symbol; read-out: HTRF IC50 cluster
Source text: The ability of the macrocyclic peptides of the present disclosure to bind to PD-L1 was investigated using a PD-1/PD-L1 Homogenous Time-Resolved Fluorescence (HTRF) binding assay. Homogenous Time-Resolved Fluorescence (HTRF) Assays of Binding of Soluble PD-1 to Soluble PD-L1. […]
Positions of bridges follow the written chain, without caps; N, C: chain ends. Non-standard residues stand in square brackets, D forms with d. Residues, ends and D or L forms follow the SMILES beside them. ξ: configuration not given here. Bta = N[C@@H](Cc1csc2ccccc12)C(=O)O; Hyp = O=C(O)[C@@H]1C[C@@H](O)CN1; AllylGly = C=CC[C@H](N)C(=O)O; NMeNle = CCCC[C@H](NC)C(=O)O; NMeM = CN[C@@H](CCSC)C(=O)O; NMeA = CN[C@@H](C)C(=O)O; Dap = NC[C@H](N)C(=O)O; ξC = NC(CS)C(=O)O

CCCC[C@H]1C(=O)N[C@@H](CCCNC(=N)N)C(=O)NC(C(=O)NCC(N)=O)CSCC(=O)N[C@@H](Cc2ccc(O)cc2)C(=O)N(C)[C@@H](C)C(=O)N[C@@H](CC(N)=O)C(=O)N2CCC[C@H]2C(=O)N[C@@H](Cc2cnc[nH]2)C(=O)N[C@@H](CO)C(=O)N2C[C@H](O)C[C@H]2C(=O)N[C@@H](Cc2c[nH]c3ccccc23)C(=O)N[C@@H](CO)C(=O)N[C@@H](Cc2csc3ccccc23)C(=O)N(C)[C@@H](CCSC)C(=O)N1C (some centres unmarked) [Example 9114] ({CH2CO}-Y[NMeA]NPHS[Hyp]WS[Bta][NMeM][NMeNle]R[ξC]G-NH2; thioether N-14) = 6.76 to 30.3 nM

Lookup: Request the reported IC50 associated with C=CC[C@@H]1NC(=O)[C@H](Cc2c[nH]c3ccccc23)NC(=O)[C@@H]2CCCN2C(=O)[C@H](CC(C)C)NC(=O)[C@H](CN)NC(=O)[C@@H]2CCCN2C(=O)[C@H](CC(N)=O)NC(=O)[C@H](C)N(C)C(=O)[C@H](Cc2ccc(O)cc2)NC(=O)CSC[C@@H](C(=O)NCC(N)=O)NC(=O)[C@H](CC=C)NC(=O)[C@H](CCCC)N(C)C(=O)[C@H](CCCC)N(C)C(=O)[C@H](Cc2c[nH]c3ccccc23)NC1=O [Example 7022] ({CH2CO}-Y[NMeA]NP[Dap]LPW[AllylGly]W[NMeNle][NMeNle][AllylGly]CG-NH2; thioether N-14)
Found: 6.76 to 30.3 nM
